- Assay remarks: NCI Yeast Anticancer Drug Screen. Data for the cln2 rad14 strain (AID 165)
- Condition notes: S. cerevisiae cln2 rad14 strain, at 50.0 µM, stronger effect = higher value
About 79,000 compounds went through this panel and 15% of them were active in at least one assay; those are over-represented in the sample as a whole.
Would you please tag the item Met when its growth inhibition is 70% or above, and Not met when it is below?

CC1(C)C2CCC1(CS(=O)O)C(=O)C2.[Ag] (configuration not stated) : Met
O=C(Oc1c(I)ccccc1=O)c1ccc([N+](=O)[O-])cc1 : Met

Hi, just wondering whether CCOC(=O)C1(C#N)C(c2ccccc2)C1(C#N)C#N (configuration not stated) shows growth inhibition of 70% or higher. Met

Let us now turn to CC(C)COC(=O)C1C2C=CC(CC2)C1C(=O)OCC(C)C (configuration not stated) Not met

Queued: O=C1C=CC(=O)N1c1ccc(-c2ccc(N3C(=O)C=CC3=O)cc2)cc1 Not met

Ok, now COc1ccc(-c2csc(C)n2)cc1OC Not met

Try this compound too: O=C(Oc1ccc(O)c2ccccc12)c1ccccc1 Met

Also need CC(=O)Oc1ccc(C)c(C(C)C(Cl)(Cl)Cl)c1 (configuration not stated) , thanks. Not met
